- Protocol Details: Pharmacokinetics of TH302 in Beagle Dogs (Table 6)
- Type: in vivo
- Measurement Setup: male, dog, plasma, intravenous, Males, 4 mg/kg
Endpoint Label: AUC (ng·h/mL)
Please state the figure in ng·h/mL; there is no need to write the unit.

Task: Which AUC is listed for Cn1c(COP(=O)(NCCBr)NCCBr)cnc1[N+](=O)[O-] [TH302] ?
Result: 2330

----------
- Protocol Details: Pharmacokinetics in Sprague-Dawley rats (single dose i.v. and p.o.)
- Type: in vivo, male Sprague-Dawley rats
- Measurement Setup: male, Sprague-Dawley, rat, plasma, iv, 5 mg/kg, rats, 5 mg/kg i.v. bolus, individual animals; read-out: CL (converted)
Endpoint Label: clearance (mL/min/kg)
Please state the figure in mL/min/kg; there is no need to write the unit.

Task: Which clearance is listed for Cn1c(COP(=O)(NCCBr)NCCBr)cnc1[N+](=O)[O-] [TH302] ?
Result: 114
